Cited source: PubChem BioAssay (NCI)

Tested on: NCI-H23 lung
Test: NCI-60 one-dose screen, 48 h (100 = growth as untreated, 0 = no growth, -100 = all killed)
Conditions: 10 µM
This is part of a sample that, as a whole, favours compounds with a hit. Of some 83,000 tested, about 20% had one in any assay.
Recorded growth for the following compounds

>  <item-smiles>
CC(=O)c1ccc(Nc2nc(SC(C)C)nc(-c3ccccc3)c2C#N)cc1

>  <target>
NCI-H23 lung

>  <growth, %>
22.4

$$$$
>  <item-smiles>
CN1CCN(c2ccc(C(=O)/C=C/c3cc(Br)ccc3F)cc2)CC1

>  <target>
NCI-H23 lung

>  <growth, %>
49.4

$$$$
>  <item-smiles>
COc1ccc2nc(Cl)c(-c3cc(-c4ccccc4)nc(=O)[nH]3)cc2c1

>  <target>
NCI-H23 lung

>  <growth, %>
57.9

$$$$
>  <item-smiles>
O=C(NO)c1ccc(CN2CCN(c3nc(-c4ccccc4)c4ccccc4n3)CC2)cc1

>  <target>
NCI-H23 lung

>  <growth, %>
-5.08

$$$$
>  <item-smiles>
CC(=O)c1cc(C(=O)N2c3ccccc3Sc3ccccc32)n2ccc(C)cc12

>  <target>
NCI-H23 lung

>  <growth, %>
42

$$$$
>  <item-smiles>
Cc1ccc(-c2cc(-c3cc4ccccc4nc3Cl)[nH]c(=S)n2)cc1

>  <target>
NCI-H23 lung

>  <growth, %>
71.5

$$$$
>  <item-smiles>
O=C(COc1ccc(NC(=O)Nc2ccc(Cl)cc2)cc1)N=Nc1c(O)[nH]c2ccc([N+](=O)[O-])cc12

>  <target>
NCI-H23 lung

>  <growth, %>
21.4

$$$$
>  <item-smiles>
C=CC(=O)Nc1nc(-c2cccc(NS(=O)(=O)c3cccc4c(N(C)C)cccc34)c2)cs1

>  <target>
NCI-H23 lung

>  <growth, %>
-3.14

$$$$
>  <item-smiles>
Cc1ccc(-c2ccc(SCC(=O)Nc3ccc(S(N)(=O)=O)cc3Br)nn2)cc1

>  <target>
NCI-H23 lung

>  <growth, %>
27.3

$$$$
>  <item-smiles>
CN1CCN(c2ccc(Nc3nc(N4CCN(S(=O)(=O)c5ccc(F)cc5)CC4)c4sccc4n3)cc2)CC1

>  <target>
NCI-H23 lung

>  <growth, %>
-64.4

$$$$
